Biological target: T1, RANKL expressed on the surface of 293 cells (UniProt O14788 1-317, limits assumed)
T1 construct: whole, on cells; also called RANKL-transfected 293 cells; cells expressing RANKL
T1 sequence (looked up): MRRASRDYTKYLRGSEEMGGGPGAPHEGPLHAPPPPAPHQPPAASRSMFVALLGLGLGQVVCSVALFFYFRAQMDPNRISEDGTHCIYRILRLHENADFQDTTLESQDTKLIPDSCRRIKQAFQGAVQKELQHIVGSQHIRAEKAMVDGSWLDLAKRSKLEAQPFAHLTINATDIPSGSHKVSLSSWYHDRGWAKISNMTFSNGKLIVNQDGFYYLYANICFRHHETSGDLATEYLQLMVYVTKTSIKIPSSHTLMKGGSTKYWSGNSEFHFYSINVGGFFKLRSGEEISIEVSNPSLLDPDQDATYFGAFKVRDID
Test: flow cytometry (MFI) on RANKL-transfected 293 cells
Experimental endpoint: EC50 (µg/mL)
# unit: µg/mL | format: bare number

[Q] For the binder clone EBI-51-11 rabbit anti-RANKL antibody (antibody, V domains shown) VH: QSVEESGGRLITPGTPLTLTCTVSGFSLSTDVVSWVRQAPGTGLEWIGYTWSGGSTYYAIWAKGRFTISKTSSTTVDLKITSPTTEDTATYFCARGFNPFDPWGPGTLVTVSS VL: DMTQTPASVSEPVGGTVTIKCQASQNIGSNLAWYQQKPGQRPKLLIYRASTLASGVSSRFKGSGSGTQFTLTISDLECADAATYYCQQGYSAGNVDKHVFGGGTEVVVK , what EC50 is on record?
[A] 0.0757

[Q] Okay, and clone EBI-51-23 rabbit anti-RANKL antibody (antibody, V domains shown) VH: QSVKESEGGLFKPTDTLTLTCTVSGFSLSIYEISWVRQAPGKELEWIGYIGVGGVTYYANWAKSRSTITRNTNQKMVALKMTSLTAADTATYFCARGYNPFDLWGPGTLVTVSS VL: DMTQTPASVEVAVGGTVTINCQASQNIGSNLAWYQQKPGQPPKLLIYKASTLASGVPSRLKGSGSGTEFTLTISGVQCDDAATYYCQQGYTTGNVDNPFGGGTEVVVK ?
[A] 0.156
